# Test system: PC-3
# EXPERIMENT SUMMARY: NCI tumour cell line growth inhibition, 48 h
The source made the active and inactive calls. Cut-off read from the data, not from the text of the source: active = GI50 up to about 1.1 µM and inactive = higher.
OBSERVED PROPERTY: GI50

- N#C/C(C(=S)NCc1ccccc1)=C(/N)N1CCCC1: > 100 µM (inactive)
- COc1cccc2c1OC1c3ccccc3OCC1C2 (stereo unspecified): 82.6 µM (inactive)
- COc1cc2c(cc1OC)C(=O)C1(C2)[C@H](c2ccccc2)C2C(=O)c3cc(OC)c(OC)cc3C2[C@H]1c1ccccc1 (stereo partly specified): > 100 µM (inactive)
- CCc1c(CNc2ccc(C(=O)NC(CC(=O)O)C(=O)O)cc2)ccc2nc(N)nc(N)c12 (stereo unspecified): 305 µM (inactive)
- Cc1ccccc1C(O)(c1nccn1C)c1nccn1C: > 100 µM (inactive)
- CC(C)(C)OC(=O)NCCNCCNc1ccccc1: > 100 µM (inactive)
